B1: library; numbered along this chain (parent)
chain: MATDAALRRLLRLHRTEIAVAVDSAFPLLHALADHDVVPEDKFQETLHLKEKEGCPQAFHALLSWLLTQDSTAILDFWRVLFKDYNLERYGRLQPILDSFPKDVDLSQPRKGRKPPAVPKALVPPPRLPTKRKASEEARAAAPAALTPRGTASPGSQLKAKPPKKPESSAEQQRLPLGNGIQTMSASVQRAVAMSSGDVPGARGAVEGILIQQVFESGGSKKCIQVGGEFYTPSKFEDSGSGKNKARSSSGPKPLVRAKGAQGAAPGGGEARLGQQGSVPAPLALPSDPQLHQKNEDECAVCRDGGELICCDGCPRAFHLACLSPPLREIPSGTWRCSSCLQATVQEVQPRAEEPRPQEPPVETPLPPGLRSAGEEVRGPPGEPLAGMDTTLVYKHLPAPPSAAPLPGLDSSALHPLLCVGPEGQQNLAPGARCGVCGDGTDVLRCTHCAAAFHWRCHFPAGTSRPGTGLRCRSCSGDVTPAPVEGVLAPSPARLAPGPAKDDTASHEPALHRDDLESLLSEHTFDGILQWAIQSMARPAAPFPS

variants of: B1; test: AIRE transcriptional activation functional score (insulin promoter-GFP; nonsense median 0, synonymous median 1) (normalised score); higher = higher AIRE activity (more reporter activation); details: with insulin promoter-GFP reporter in HEK293
AIRE transcriptional activation functional score: recorded values
testReadout: AIRE transcriptional activation functional score

{"columns": ["mutant", "observedResult"],
 "data": [
  ["F215P", 0.715],
  ["A134L", 1.11],
  ["G477L", 0.273],
  ["P509M", 1.65],
  ["T16M", 0.203],
  ["V37C", -0.563],
  ["P325D", 0.208],
  ["Q225Y", -0.259],
  ["P282V", 1.38],
  ["A317D", 1.25],
  ["K165Q", 0.596],
  ["R132P", -0.258],
  ["C437R", 0.0167],
  ["E508I", 0.786],
  ["D23V", -0.286],
  ["R203P", 1.03],
  ["S169Q", 0.286]
]}
